# System: Bacteroides caccae
# test protocol: growth AUC relative to DMSO control (median of replicates) (fraction); higher = more growth (less inhibition), active = hit call of the paper
# settings: 20 µM; 24 h
# binarize growth AUC: threshold 1 inclusive, high side True, low side False

1. CC(C)(C)[C@@H](O)[C@@H](Cc1ccc(Cl)cc1)n1cncn1 (mixture of isomers)
False
2. ClC=C(c1ccc(Cl)cc1)c1ccc(Cl)cc1
False
3. CC1(C)C(C(=O)OC(C#N)c2cccc(Oc3ccccc3)c2)C1C(Br)C(Br)(Br)Br (stereo not drawn)
False
4. CCCCCCCCCCCC[N+](C)(C)Cc1ccc(CC)cc1.[Cl-]
False
5. CCN(Cc1c(F)cccc1Cl)c1c([N+](=O)[O-])cc(C(F)(F)F)cc1[N+](=O)[O-]
False

Assess whether reported growth AUC for COC1CCC2(CC1)NC(=O)C(c1cc(C)ccc1C)=C2OC1OC(CO)C(O)C(O)C1O (stereo not drawn) sits at 1 or higher.
False

Follow-up item: Cc1cc(C)cc(OCC(C)Nc2nc(N)nc(C(C)(C)F)n2)c1 (stereo not drawn)
False

Another compound to check: CCc1nc2ncnn2c(N)c1CCCCCC(=O)O.Cl
True
